systemTested: UniProtKB P00582
Sequence (P00582 324-928 limits assumed): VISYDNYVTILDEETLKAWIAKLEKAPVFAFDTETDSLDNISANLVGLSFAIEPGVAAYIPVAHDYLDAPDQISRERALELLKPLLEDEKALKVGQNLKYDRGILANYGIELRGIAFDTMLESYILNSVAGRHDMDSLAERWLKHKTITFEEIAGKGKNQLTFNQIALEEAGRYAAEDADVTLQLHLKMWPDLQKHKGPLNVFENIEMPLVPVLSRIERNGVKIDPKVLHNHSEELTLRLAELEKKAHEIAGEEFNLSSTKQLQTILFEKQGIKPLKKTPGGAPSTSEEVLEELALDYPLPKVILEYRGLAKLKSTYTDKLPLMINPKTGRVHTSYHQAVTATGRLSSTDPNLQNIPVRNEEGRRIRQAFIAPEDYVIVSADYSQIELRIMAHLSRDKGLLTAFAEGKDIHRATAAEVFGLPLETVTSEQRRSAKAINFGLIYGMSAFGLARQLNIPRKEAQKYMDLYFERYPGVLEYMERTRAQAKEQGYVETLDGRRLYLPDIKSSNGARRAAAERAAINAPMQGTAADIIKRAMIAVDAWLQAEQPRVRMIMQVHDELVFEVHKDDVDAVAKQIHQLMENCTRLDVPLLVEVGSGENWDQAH
reportedMetric: pIC50
Answer as the number alone; pIC50 is minus log10 of concentration in mol/L.

Report pIC50 for Nc1ccn([C@H]2C[C@H](O)[C@@H](COP(=O)(O)OP(=O)(O)OP(=O)(O)O)O2)c(=O)n1 please. 5.47
